- Test system: EKVX NSCLC
- method_description: NCI-60 one-dose screen, 48 h (100 = growth as untreated, 0 = no growth, -100 = all killed)
- condition_description: 10 µM unless noted
- Experimental: Growth inhibition of the EKVX human Non-Small Cell Lung tumor cell line is measured as a screen for anti-cancer activity. Cells are grown in 96 well plates and exposed to the test compound for 48 hours. Compounds are tested at a single concentration, which is 10^-5 M for most compounds. The reported endpoint is percent growth (GI% or GIPRCNT), where numbers from 0 - 100% represent growth inhibition, and numbers from -100% - 0 represent cell death. […]
About 83,000 compounds went through this panel and 20% of them were active in at least one assay; those are over-represented in the sample as a whole. Activity calls are given as the source filed them. Rule for the calls: active = growth percent below 10; inactive = the rest.
Parameter growth: see the listing below.
measured_attribute: growth

molecule=CCOC(=O)C#Cc1c(C(=O)OCC)nnn1Cc1ccc([N+](=O)[O-])cc1 result="106% (inactive)"
molecule=OCCn1cc(-c2nc(-c3c[nH]c4ncccc34)cs2)c2ccccc21 result="32% (inactive)"
molecule=COc1ccc(Nc2nnc(-c3ccc(OC)c(OC)c3)o2)cc1 result="89.8% (inactive)"
molecule=CCN(CC)CCn1c2ccc(O)cc2c2sc3cc(O)ccc3c(=O)c21 result="48.8% (inactive)"
molecule=N#CSc1c[nH]c2cccc(/C=C/C(=O)/C=C(/C=C/c3cccc4[nH]cc(SC#N)c34)OB(F)F)c12 result="-10.4% (active)"
molecule="Fc1cnccc1C1CC(c2ccc(N3CCNCC3)cc2)=NN1 (configuration not stated)" result="91% (inactive)"
molecule="Cc1nc2sc(C(=O)Nc3ccc(Br)cc3)c(N)c2cc1C(O)c1ccccc1 (configuration not stated)" result="55.3% (inactive)"
molecule="N#CC1=C(c2ccccc2)Nc2c(c(-c3ccc(Cl)cc3)nn2-c2ccccc2)C12C(=O)Nc1ccc(Cl)cc12 (configuration not stated)" result="61.6% (inactive)"
molecule=COc1ccc2c(c1)c(-c1nc(-c3c[nH]c4ccncc34)cs1)cn2C result="-53.3% (active)"
molecule=O=C(c1ccccc1)c1ccc(C2CCCCC2)cc1 result="81.9% (inactive)"
molecule=O=C(COc1ccc(-c2nc3cc(Cl)c(Cl)cc3[nH]2)cc1)N=Nc1c(O)[nH]c2ccc(Cl)cc12 result="96.8% (inactive)"
molecule=Cn1cc(-c2csc(-c3cn(C(=O)OC(C)(C)C)c4ccc(Br)cc34)n2)c2ccnc(Cl)c21 result="87.7% (inactive)"
molecule=COc1cc(NS(=O)(=O)c2ccc(-c3cnc(C4CC4)o3)cc2)ccc1F result="33% (inactive)"
molecule=COc1ccc(-c2nc3c(ncc4ccc(=O)[nH]c43)s2)cc1 result="63.8% (inactive)"
molecule=CN1CCc2nc3sc(C(N)=O)c(N)c3c(-c3cccs3)c2C1 result="47.7% (inactive)"
molecule="CC1CCc2c(C(=O)Nc3ncc(Cc4cccc([N+](=O)[O-])c4)s3)csc2C1 (configuration not stated)" result="25.6% (inactive)"
molecule=COc1ccccc1N1CCCCC1 result="98.1% (inactive)"
molecule=S=c1sc2c(Cl)nc(-c3cccnc3)nc2n1-c1ccccc1 result="89.6% (inactive)"
molecule=O=c1c2cnn(-c3ccccc3)c2n2c(CN3CCOCC3)nnc2n1-c1ccccc1 result="102% (inactive)"
molecule=Cn1ccnc1C(=O)/C=C/c1ccc(C(=O)Nc2ccccc2O)cc1 result="56.5% (inactive)"
molecule=COc1ccccc1CNc1c2ccccc2nc2ccccc12 result="65.7% (inactive)"
molecule=O=c1scc(-c2ccc(C(F)(F)F)cc2)s1 result="78.8% (inactive)"
molecule=O=S(=O)(Nc1cc(Cl)ccc1Cl)c1ccc(-c2cnc(C3CC3)o2)cc1 result="58.7% (inactive)"
molecule=O=C(Nc1ccc(Oc2cccc(Cl)c2)c(Cl)c1)c1cccnc1 result="50.9% (inactive)"
molecule="CCN(CC)CC(O)COc1c(Br)c(Br)c(Br)c2c1OC(C)(C)C2 (configuration not stated)" result="105% (inactive)"
molecule=c1ccc(-c2oc(-c3ccccc3)c(CN3CCCCC3)c2CN2CCCCC2)cc1 result="41% (inactive)"
molecule=C=C1C(=O)O[C@H]2[C@H]1CC/C(COC(=O)c1cc3ccccc3s1)=C\CC[C@@]1(C)O[C@@H]21 result="-81.1% (active)"
molecule=C#CCOC(=O)/C=C/c1cn(-c2ccccc2)nc1-c1ccc(OC)cc1 result="93.4% (inactive)"
molecule="Cc1ccc(C2=Nc3c(N)ncnc3NC(c3cccc(Nc4ccnc5cc(C(F)(F)F)ccc45)c3)C2)cc1 (configuration not stated)" result="25.2% (inactive)"
molecule=CCCC/C=C/[C@@H]1C[C@H]1CCO result="101% (inactive)"
molecule="NC(Cc1ccc(O)c([N+](=O)[O-])c1)C(=O)O (configuration not stated)" result="111% (inactive)"
molecule=Cn1c(I)c(C#CCO[Si](C)(C)C(C)(C)C)c(=O)[nH]c1=O result="105% (inactive)"
molecule=CCN(CC)S(=O)(=O)c1ccc(S(=O)(=O)N2CCC[C@@H](C(=O)N3CCN(c4nc(C(C)C)no4)CC3)C2)cc1 result="55.1% (inactive)"
molecule=COc1ccc(-c2cc(-c3cccnc3)nc3sc4c(=O)[nH]c(-c5ccc(Cl)cc5)nc4c23)cc1OC result="90% (inactive)"
molecule=O=C(Nc1ccccc1)Nc1ncnc2c1ncn2-c1ccc(Cl)cc1 result="86.7% (inactive)"
molecule=CC(C)C1=NOC(=O)C1=Cc1cn(-c2ccccc2)nc1-c1ccc(F)cc1 result="97.2% (inactive)"
molecule=CC(C)c1ccc(C(=O)Nc2nc3ccc(O)c(CN(C)C)c3s2)cc1 result="95.8% (inactive)"
molecule="CC(C)=CCCC(C)c1ccc(C)c2c1OCN(CCCCCO)C2 (configuration not stated)" result="102% (inactive)"
molecule=Fc1cc2c(cc1Cl)N(c1ncnc3ccc(-c4ccc5n[nH]nc5c4)cc13)CC2 result="52.8% (inactive)"
molecule=CCN(C)S(=O)(=O)Nc1cccc(Nc2ncnc3cc(NC(=O)CCl)ccc23)c1Cl result="18.4% (inactive)"
molecule=Oc1c(Br)cc(Br)c2ccc(Cn3cc(-c4ccc(C(F)(F)F)cc4)nn3)nc12 result="83.6% (inactive)"
molecule=Cc1[nH]c(C(=O)Nc2ccccc2OC2CCNCC2)c(Cl)c1Cl result="43% (inactive)"
